Test system: IGROV1 ovarian
Experiment: NCI-60 one-dose screen, 48 h
Conditions: 10 µM unless noted
This is part of a sample that, as a whole, favours compounds with a hit. Of some 83,000 tested, about 20% had one in any assay. Calls of active or inactive are those of the source. How the source made its calls: active means growth percent below 10; inactive means the rest.
Classes used: 1 (yes) (active), 0 (no) (inactive)

Molecule	Cat
COc1cc2c3c(n(CCCNCC4CC4)c(=O)c2cc1OC)-c1cc2c(cc1C3=O)OCO2	0 (no)
C#C[C@]1(O)CC[C@H]2[C@@H]3CC=C4c5sc(Nc6cccc(C)n6)nc5CC[C@]4(C)[C@H]3CC[C@@]21C	0 (no)
COc1cc(/C=C/C(=O)c2ccc(NC(=O)CSc3nnc(-c4ccc5nc(-c6ccccc6)[nH]c5c4)o3)cc2)cc(OC)c1OC	0 (no)
C#C[C@]1(O)CC[C@H]2[C@@H]3CC=C4c5sc(Nc6cc(OC)ccc6OC)nc5CC[C@]4(C)[C@H]3CC[C@@]21C	0 (no)
COc1cc(C(=O)C[n+]2ccc3ccccc3c2)cc(OC)c1OC	0 (no)
Cc1ccc(C2CC(c3ccc(Nc4nc(NCCO)nc(Nc5ccc(Cl)cc5)n4)cc3)=Nc3c(N)nc(N)nc3N2)cc1 (configuration not stated)	1 (yes)
O=C1c2c(c3c4cc(Br)ccc4[nH]c3c3ccc4ccccc4c23)C(=O)N1CCN1CCNCC1	0 (no)
COc1ccc(/C=N/Nc2nc(Nc3ccccc3)nc(Nc3ccc(S(N)(=O)=O)cc3)n2)cc1	0 (no)
COc1cc(/C=N/n2cnc3oc(-c4ccccc4)cc3c2=N)cc(CN2CCCCC2)c1O	1 (yes)
COc1ccc(N)cc1C(=O)Nc1cccc(-c2cc(=O)c3c(OC)c(OC)c(OC)cc3o2)c1	0 (no)
CCOC(=O)c1c(NCC(=O)Nc2ccc(Br)cc2)sc2c1CCCC2	0 (no)
COc1cc2cc(Oc3ccc(NC(=O)c4cccc(C(F)(F)F)c4)cc3)c(C)nc2cc1OCCN(C)C	0 (no)

Taken from PubChem BioAssay (NCI).
